PROTOCOL DESCRIPTION: soluble on expression in E. coli; label from the status in PepcDB or PDB records
RECORDED METRIC: soluble on expression in E. coli

MGSDKIHHHHHHMMKSLPHMIGNEIKRIRKEKKMTQKELCDGICSQAEISKIENGRNSPTIDLLQQISKRLRVPLSLLFRDQLESDAFREADNHLSSLFREQKYQEMRLELLRTDAIHHNEIRLLKAYFTILLEVKTEKIDYRTASALLSRLTDQEDIWYESPKMFIRIKMAISNLHVENEQYHLAEKVYEELEELTYDTEELKKQLIKVYYNHSQLLTYEKKYKAGLKITEKGLSYSLSLNDASFIAHFYYQRGYYHEVMLGDDSSPAQRDYTISYALFRAFHLHTYEEIVLKGKERFLLFTF : not soluble
MDMPHSTTHDASPAPCQRCGMAGATCCTIDPTDASLCFPVSRSEWERIVDHCDKRGGFATEPNTRPFVDNLIRLFPGEAREIERLFPPHGFHLRLAVDAKGNCAFLGPEGCTLPREVRPWYCLVFPFWLQGGRIAIFTPSGCVAVREGRTVPGCLALMNFTARDVRRLAGRLRLAWGLPPLDENGETLLEHHHHHH : not soluble

----------
PROTOCOL DESCRIPTION: soluble on expression in E. coli; label from the status in PepcDB or PDB records
RECORDED METRIC: soluble on expression in E. coli

MAESRSPDRGAKEDKPRPRNISREESLQLEGYKHACHALLHAPSQAKLFDRVPIRRVLLMMMRFDGRLGFPGGFVDTRDISLEEGLKRELEEELGPALATVEVTEDDYRSSQVREHPQKCVTHFYIKELKLEEIERIEAEAVNAKDHGLEVMGLIRVPLYTLRDRVGGLPAFLCNNFIGNSKSQLLYALRSLKLLREDQIQEVLKASHRLQY : soluble
MSLDLRKINLNLLLHLDTLLNELSVSKAAEKSFMSQTAMSHILKQLRDIFDDPLFIRKPHGLQPTQKVLDLAPKIKKFLNYSNDIFEEDTFNPGNDNLFLKTASVGTGEYFILPRLCAHLAKNAPKFVLKISSLSEYLSLEYLLMSELDFAIGPGFVETGNNIIRELLFEEEAVCIMHKSHPLANQELTQDMYLQAEHVDIQFSYMGNENILYKALQGYHQRNIKVIVPNIISALEVVYHTNFITTVPRTLAVTFKDRYQIELHPFPFPKKTFLVNFYYHKRLSNHKPLQWVLDVIKKYCCVNHEGHHHHHH : soluble

----------
PROTOCOL DESCRIPTION: soluble on expression in E. coli; label from the status in PepcDB or PDB records
RECORDED METRIC: soluble on expression in E. coli

Below, each entry is followed by its recorded soluble on expression in E. coli result.
MNIVIAAVGGQGAVLTSKILGTLAQNLGKDVKVSEVHGMSQRGGSVVAYVKFGDKVYSPVVEKGTADIVLAFEMLEGARYVDYLKENGKLVVNTQRIDPMPVITGDMEYPADLGEKLEELNIGYIPVDALSLAKNAGTIKAVNVALIGVLAQNSNIKKEEWIKAIKDTVPEKFLELNLKAFELGYNL : not soluble
MIMVNNDAVVRNVYHKYFHPKEALVSSGVLNREISRAAGKAVPGIIDEESSGNNAQ : soluble
MGSSHHHHHHNYNIPTTENLYFQGHMNIGLLEALDQLEEEKGISKEEVIPILEKALVSAYRKNFGNSKNVEVVIDRNTGNIKVYQLLEVVEEVEDPATQISLEEAKKIDPLAEVGSIVKKELNVKNFGRIAAQTAKQVLIQRIRELEKEKQFEKYSELKGTVTTAEVIRVMGEWADIRIGKLETRLPKKEWIPGEEIKAGDLVKVYIIDVVKTTKGPKILVSRRVPEFVIGLMKLEIPEVENGIVEIKAIAREPGVRTKVAVASNDPNVDPIGACIGEGGSRIAAILKELKGEKLDVLKWSDDPKQLIANALAPATVIEVEILDKENKAARVLVPPTQLSLAIGKGGQNARLAAKLTGWKIDIKPIMNL : soluble
SPSPWGWFAVTACGAQRNNFEEPVALQEMDTSNGVLLPFYDPDSSIVYLCGKGDSSIRYFEITDEPPFVHYLNTFSSKEPQRGMGFMPKRGLDVSKCEIARFYKLHERKCEPIIMTVPRKSDLFQDDLYPDTPGPEPALEADEWLSGQDAEPVLISLRDGYVPPKHRELRVTKRNILDVRPPSGPRRSQSASDAPLSQHTLETLLEEIKALRERVQAQEQRITALENMLCELVDGTD : soluble
MGSDKIHHHHHHMYFNVYGHAGKPIIVFPSSGGSQNEYGDFGMIEACQSFIDRGVVKFYTPDSLDRESWLAEGKSGHDMALAHEAYDRYIVHELVPLIRYESNWNGMMMATGCSMGAFHTVNFSLRHPDLFDISVALSGVYDARFFTGEFYGDPAVYYNSPIDYLWNQEDSWFLDRYRRNRFIVAVGQGAWEEPHIIDTIRLKEAFEAKSIPAWFDFWGSDVAHDWEWWRVQMPYFLGKLEEEGRI : not soluble

// next entry
Query string: Can you look up the measured soluble on expression in E. coli of MEEPSELGASKEKPIELNEDDESSDGENSVIILDSDTEPEDGAGGEEDEDNGEDSEEEDEEDSDEEESEDDSDSSVDTESVNSVWSNVDEENGEEITTEAAEAKIIKKFEKAIFSIADNDSETGRRILEKLLNDAIIATYNQENPDFELLDEPPRLAKMLQVFIASHRNLAKLCEKEVENADEKEKEQLKSEEIQHLCQVLAYEPNSSDIWLDVALKSIEFGDLNFSKYAFKRCETLKESLESHATLLYLTCDYNESLMIMKQFQEQNDVLNDKLKYLKHKIRSTNQYYKLSCDRIFEEDEVYADVQSVEKRKIQDFDERIEALRSRVVGKIEQRDVDFRDEEEKCSVIPIRIEADQE for me?
Result string: not soluble
